FYI, the data here is from paper PMC3690454.

# ASSAYED TARGET: T1, hexa-His-tagged 14-3-3ζ (UniProt P63104 1-245)
# T1 construct: 14-3-3ζ, expressed essentially as in Kostelecky et al., 2009; eluted as a dimer of ~60 kDa; also called recombinant 14-3-3ζ; 14-3-3ζ domain; source: E. coli BL21(DE3) Star, purified (HisTrap, size-exclusion chromatography)
# T1 sequence: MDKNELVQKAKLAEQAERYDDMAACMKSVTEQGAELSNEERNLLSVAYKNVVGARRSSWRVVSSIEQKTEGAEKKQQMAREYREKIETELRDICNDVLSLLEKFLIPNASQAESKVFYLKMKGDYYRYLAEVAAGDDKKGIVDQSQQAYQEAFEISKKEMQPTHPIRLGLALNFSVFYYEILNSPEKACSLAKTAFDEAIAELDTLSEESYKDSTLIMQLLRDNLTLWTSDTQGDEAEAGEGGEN
# EXPERIMENT DESCRIPTION: BLI; Octet RED96; biotinylated peptides immobilised on streptavidin biosensors; dilution series of 14-3-3ζ; 25 mM Tris, 150 mM NaCl, 0.1% Tween-20; KD of +P-F by steady-state analysis
# PARTICULARS: both partners purified
Square brackets hold non-standard residues; d marks the D form. Ends that are not written are not given here. * marks the point of attachment. Geranylgeranyl = CC(C)=CCC/C(C)=C/CC/C(C)=C/CC/C(C)=C/C*; Biotin = O=C1N[C@H]2[C@H](CS[C@H]2CCCCC(=O)*)N1; pS = N[C@@H](COP(=O)(O)O)C(=O)O; Ahx = NCCCCCC(=O)O

BINDER: {Biotin-Ahx}-EKKKPKKK[pS]C(Geranylgeranyl) (C terminus of Rap1A up to the prenylated C181; also called Rap1A peptide; source: synthetic peptide) [biotinylated Rap1A C-terminal peptide, phosphorylated and geranylgeranylated]
Kd: ~25 nM
